Source of measurements: patent US11014905B2

Test: Test 3-2: metabolic stability test of human liver microsome
Type: in vitro ADME
Conditions: human liver microsome 0.5 or 1.0 mg/mL, test compound 0.1 μmol/L, 37° C., 30 minutes
Method: Test 3-2: Metabolic Stability Test of Human Liver Microsome In order to evaluate the metabolic stability of human liver microsomes more precisely, the stability of the present compounds for human liver microsome metabolism was evaluated with a suitable concentration of human liver microsome, as mentioned below. The used human liver microsome was obtained from Xenontech. […]
Listed here are molecules together with their documented Metabolic stability of human liver microsome.
Just the number in mL/min/mg protein, nothing appended.

Some molecules with recorded Metabolic stability of human liver microsome:
• Cc1cccc(C2CCN(CCNC(=O)C3CCOCC3)CC2)n1 [Example 8] = 0.023
• O=C(NCCN1CCC(c2cccc(C(F)(F)F)n2)CC1)C1CCC(F)(F)CC1 [Example 1] = 0.031
• CC(C)(C)C(=O)NCCN1CCC(c2cccc(C(F)(F)F)n2)CC1 [Example 9] = 0.016

(Q) Look up Metabolic stability of human liver microsome for this molecule: O=C(NCCN1CCC(c2cccc(C(F)(F)F)n2)CC1)C1CCOCC1 [Example 11]
(A) 0.0075
